Readings of Imax/Imin for the listed molecules
Target: FtsZ-GMPCPP polymers (BsFtsZ) (Bacillus subtilis, UniProt P17865)
Construct: made in house
Sequence (P17865 whole entry): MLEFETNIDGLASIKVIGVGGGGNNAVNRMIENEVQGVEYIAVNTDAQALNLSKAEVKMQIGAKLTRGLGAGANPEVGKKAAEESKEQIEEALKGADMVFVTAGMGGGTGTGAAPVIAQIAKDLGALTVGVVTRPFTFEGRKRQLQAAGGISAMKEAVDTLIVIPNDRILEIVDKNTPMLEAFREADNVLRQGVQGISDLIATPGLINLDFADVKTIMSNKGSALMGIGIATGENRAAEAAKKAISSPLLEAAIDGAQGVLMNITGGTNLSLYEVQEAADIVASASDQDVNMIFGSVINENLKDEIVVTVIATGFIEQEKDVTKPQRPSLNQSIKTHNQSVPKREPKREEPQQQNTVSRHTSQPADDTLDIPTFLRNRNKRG
Assay: Binding titration of the fluorescent probes to FtsZ polymers by fluorescence anisotropy
Details: FtsZ-GMPCPP polymers; best fit values from binding titrations

| Molecule | Imax/Imin |
| --- | --- |
| CCC[C@@H](CNc1ccc([N+](=O)[O-])c2nonc12)Oc1ccc(F)c(C(N)=O)c1F [(S)-2] | 2.4 |
| CCC[C@H](COc1ccc(F)c(C(N)=O)c1F)Nc1ccc([N+](=O)[O-])c2nonc12 [(R)-5] | 6.2 |
| CCC[C@H](CNc1ccc([N+](=O)[O-])c2nonc12)Oc1ccc(F)c(C(N)=O)c1F [(R)-2] | 1.0 |
| CCC[C@@H](COc1ccc(F)c(C(N)=O)c1F)Nc1ccc([N+](=O)[O-])c2nonc12 [(S)-5] | 1.7 |
| NC(=O)c1c(F)ccc(OCCNc2ccc([N+](=O)[O-])c3nonc23)c1F [Compound 1, reference compound] | 1.0 |
